- system_tested: human KOR receptor (Homo sapiens)
- experimental_details: IP-One HTRF assay, potency of KOR agonists, dose-response in transiently transfected COS-7 cells
quantity_measured: EC50

Take a look at these entries with their results.
CN(C(=O)Cc1ccc2c(c1)NC(=O)CS2(=O)=O)[C@H](CN1CC[C@H](O)C1)c1cccc(OCC(=O)O)c1 :: ≤ 50 nM
CN(C(=O)Cc1ccc2c(c1)NC(=O)CS2)[C@H](CN1CC[C@H](O)C1)c1ccccc1 :: ≤ 50 nM
CCc1nc(-c2cccc([C@@H](CN3CC[C@H](O)C3)N(C)C(=O)Cc3ccc4c(c3)NC(=O)C4)c2)no1 :: ≤ 50 nM

For the next question, use this compound.
Exercise: Entry under review: `O=C(Cc1ccc2oc(=O)[nH]c2c1)N[C@H](CN1CCCC1)c1cccc(O)c1` . Reported EC50?
Key: ≤ 50 nM

====

- system_tested: human KOR receptor (Homo sapiens)
- experimental_details: IP-One HTRF assay, potency of KOR agonists, dose-response in transiently transfected COS-7 cells
pEC50: −log10 of the molar value.
So I've got a bunch of compounds here, and I need their pEC50 values.

Take a look at these entries with their results.
CN(C(=O)Cc1ccc2c(c1)NC(=O)CS2(=O)=O)C(CN1CC[C@H](O)C1)c1ccc(OC(F)(F)F)cc1 (stereo in doubt) [Example 142] :: ≥ 7.30
CCN(CC)C(=O)c1cccc([C@@H](CN2CC[C@H](O)C2)N(C)C(=O)Cc2ccc3c(c2)NC(=O)C3)c1 [Example 39] :: ≥ 7.30
CN(C(=O)Cc1ccc2c(c1)NC(=O)C2)[C@H](CN1CC[C@H](F)C1)c1cccc(OCC(=O)NS(C)(=O)=O)c1 [Example 162] :: ≥ 7.30
Cc1nc(-c2cccc([C@@H](CN3CC[C@H](O)C3)N(C)C(=O)Cc3ccc4c(c3)NS(=O)(=O)C4)c2)no1 [Example 181] :: ≥ 7.30
O=C1COc2ccc(CC(=O)N[C@H](CN3CC[C@H](O)C3)c3ccccc3)cc2N1 [Example 2] :: ≥ 7.30

Please go through the list and note pEC50 for each compound.
1. CN(C(=O)Cc1ccc2c(c1)NC(=O)C2)[C@H](CN1CC[C@H](F)C1)c1cccc(C(=O)O)c1 [Example 28]
2. C#Cc1cccc([C@@H](CN2CC[C@H](O)C2)N(C)C(=O)Cc2ccc3c(c2)NS(=O)(=O)C3)c1 [Example 182]
3. O=C(Cc1ccc2c(c1)NC(=O)C2(F)F)N[C@H](CN1CC[C@H](O)C1)c1ccccc1 [Example 13]
4. CN(C(=O)Cc1ccc2oc(=O)[nH]c2c1)[C@H](CN1CC[C@H](O)C1)c1cccc(C(=O)O)c1 [Example 176]
5. CCN(CC)C(=O)COc1cccc([C@@H](CN2CC[C@H](O)C2)N(C)C(=O)Cc2ccc3sc(=O)[nH]c3c2)c1 [Example 42]

Key:
["6.00 to 7.00", "≥ 7.30", "≤ 6.00", "≥ 7.30", "≥ 7.30"]

====

- system_tested: human KOR receptor (Homo sapiens, UniProt P41145)
- Sequence (P41145 whole entry): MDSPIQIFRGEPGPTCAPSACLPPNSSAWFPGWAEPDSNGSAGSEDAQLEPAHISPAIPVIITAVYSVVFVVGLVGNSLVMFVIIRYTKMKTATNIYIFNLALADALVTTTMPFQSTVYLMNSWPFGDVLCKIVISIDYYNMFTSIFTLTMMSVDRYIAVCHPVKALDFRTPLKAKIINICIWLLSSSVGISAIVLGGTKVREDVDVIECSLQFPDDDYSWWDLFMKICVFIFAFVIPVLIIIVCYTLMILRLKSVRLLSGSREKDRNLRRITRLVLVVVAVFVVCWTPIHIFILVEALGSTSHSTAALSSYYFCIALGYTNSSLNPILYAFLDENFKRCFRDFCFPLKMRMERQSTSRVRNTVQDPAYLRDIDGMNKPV
- experimental_details: IP-One HTRF assay, potency of KOR agonists, dose-response in transiently transfected COS-7 cells
pEC50: −log10 of the molar value.
So I've got a bunch of compounds here, and I need their pEC50 values.

Take a look at these entries with their results.
CN(C(=O)Cc1ccc2oc(=O)n(Cc3ccc(C#N)cc3)c2c1)[C@H](CN1CC[C@H](O)C1)c1ccccc1 [Example 75] :: ≥ 7.30
CC(C)N(C(=O)Cc1ccc2c(c1)NC(=O)CS2(=O)=O)[C@H](CN1CC[C@H](O)C1)c1cccc(OC(F)(F)F)c1 [Example 138] :: 7.00 to 7.29
O=C(Cc1ccc2oc(=O)[nH]c2c1)N[C@H](CN1CCCC1)c1ccccc1 [Example 56] :: ≥ 7.30
CN(C(=O)Cc1ccc2c(c1)NC(=O)C2)[C@H](CN1CC[C@H](O)C1)c1ccccc1 [Example 1] :: 7.00 to 7.29
CCN(CC)C(=O)c1cccc([C@@H](CN2CC[C@H](O)C2)N(C)C(=O)Cc2ccc3c(c2)NS(=O)(=O)C3)c1 [Example 208] :: ≥ 7.30

Please go through the list and note pEC50 for each compound.
1. CN(C(=O)Cc1ccc2c(c1)NC(=O)C2)[C@H](CN1CC[C@H](O)C1)c1cccc(C#N)c1 [Example 156]
2. O=C1CS(=O)(=O)c2ccc(CC(=O)N[C@H](CN3CCCC3)c3ccccc3)cc2N1 [Example 121]

Key:
1: ≥ 7.30; 2: ≥ 7.30

====

- system_tested: human KOR receptor (Homo sapiens)
- experimental_details: IP-One HTRF assay, potency of KOR agonists, dose-response in transiently transfected COS-7 cells
pEC50: −log10 of the molar value.
quantity_measured: pEC50

Take a look at these entries with their results.
CN(C(=O)Cc1ccc2c(c1)NC(=O)C2)[C@H](CN1CC[C@H](O)C1)c1cccc(OCC(N)=O)c1 :: ≥ 7.30
C#Cc1cccc([C@@H](CN2CC[C@H](O)C2)N(C)C(=O)Cc2ccc3c(c2)NC(=O)CS3(=O)=O)c1 :: ≥ 7.30
Cc1nnc(-c2cccc([C@@H](CN3CC[C@H](O)C3)N(C)C(=O)Cc3ccc4c(c3)NC(=O)C4)c2)s1 :: ≥ 7.30

Please go through the list and note pEC50 for each compound.
1. CC(C)(C)OC(=O)COc1cccc(C(CN2CC[C@H](O)C2)NC(=O)Cc2ccc3oc(=O)[nH]c3c2)c1 (mixture of isomers)
2. CC(C)(C)OC(=O)Cn1c(=O)oc2ccc(CC(=O)N[C@H](CN3CCCC3)c3ccccc3)cc21

Key:
["≥ 7.30", "≥ 7.30"]

Please go through the list and note pEC50 for each compound.
1. CCC#Cc1cccc([C@@H](CN2CC[C@H](O)C2)N(C)C(=O)Cc2ccc3c(c2)NS(=O)(=O)C3)c1
2. CN(C(=O)Cc1ccc2sc(=O)[nH]c2c1)[C@H](CN1CC[C@H](O)C1)c1cccc(-c2nccs2)c1
3. CN(C(=O)Cc1ccc2c(c1)NC(=O)CS2(=O)=O)[C@H](CN1CCC(O)C1)c1ccccc1 (stereo in doubt)
4. COC(=O)c1ccc(Cn2c(=O)oc3ccc(CC(=O)N(C)[C@H](CN4CC[C@H](O)C4)c4ccccc4)cc32)cc1
5. CN(C(=O)Cc1ccc2c(c1)NS(=O)(=O)C2)[C@H](CN1CC[C@H](O)C1)c1cccc(C(F)(F)F)c1

Key:
1: ≥ 7.30; 2: 6.00 to 7.00; 3: ≥ 7.30; 4: ≥ 7.30; 5: 6.00 to 7.00

Please go through the list and note pEC50 for each compound.
1. CN(C(=O)Cc1ccc2c(c1)NC(=O)C2)[C@H](CN1CC[C@H](O)C1)c1cccc(OCc2nn[nH]n2)c1
2. CCC#Cc1cccc([C@@H](CN2CC[C@H](O)C2)N(C)C(=O)Cc2ccc3ncc(=O)[nH]c3c2)c1
3. CN(C(=O)Cc1ccc2c(c1)NC(=O)C2)C(CN1CCCC1)c1cccc(OCC(=O)O)c1.Cl (centres unmarked) [Example 87, hydrochloride]
4. CN(C(=O)Cc1ccc2oc(=O)[nH]c2c1)C(CN1CCCC1)c1cccc(OCC(=O)O)c1 (stereo in doubt)

Key:
1. 7.00 to 7.29
2. ≥ 7.30
3. ≥ 7.30
4. 7.00 to 7.29

====

So I've got a bunch of molecules here, and I need their melting point values.

Take a look at these entries with their results.
CN(C(=O)Cc1ccc2oc(=O)n(Cc3cccc(-c4nn[nH]n4)c3)c2c1)[C@H](CN1CCC(O)C1)c1ccccc1 (stereo in doubt) [Example 103] :: 123 to 125 °C
Cn1c(=O)oc2ccc(CC(=O)N[C@H](CN3CCC(O)C3)c3ccccc3)cc21 (stereo in doubt) [Example 45] :: 105 to 106 °C
CN(C(=O)Cc1ccc2oc(=O)[nH]c2c1)[C@H](CN1CC[C@H](F)C1)c1cccc(-c2nn[nH]n2)c1 [Example 109] :: 133 to 134 °C

Please go through the list and note melting point for each molecule.
1. O=C(Cc1ccc2oc(=O)n(Cc3cccc(-c4nn[nH]n4)c3)c2c1)N[C@H](CN1CCC(O)C1)c1ccccc1 (stereo in doubt) [Example 102]
2. CN(C(=O)Cc1ccc2c(c1)NC(=O)C2)[C@H](CN1CC[C@H](F)C1)c1cccc(-c2nn[nH]n2)c1 [Example 113]

Key:
1. 235 to 237 °C
2. 175 to 177 °C

Please go through the list and note melting point for each molecule.
1. CN(C(=O)Cc1ccc2oc(=O)n(Cc3ccc(-c4nnn[nH]4)cc3)c2c1)[C@H](CN1CCC(O)C1)c1ccccc1 (stereo in doubt) [Example 104]
2. O=C(Cc1ccc2[nH]c(=O)ccc2c1)N[C@H](CN1CCC(O)C1)c1ccccc1 (stereo in doubt) [Example 51]
3. O=C1Cc2ccc(CC(=O)N[C@H](CN3CC[C@H](O)C3)c3ccccc3)cc2N1
4. O=C(Cc1ccc2ccc(=O)[nH]c2c1)N[C@H](CN1CC[C@H](O)C1)c1ccccc1
5. CN(C(=O)Cc1ccc2c(c1)NS(=O)(=O)C2)[C@H](CN1CC[C@H](O)C1)c1ccccc1 [Example 136]
6. O=C(Cc1ccc2oc(=O)n(Cc3ccccc3)c2c1)N[C@H](CN1CCCC1)c1cccc(O)c1 [Example 20]

Key:
["218 to 220 °C", "196 to 198 °C", "207 to 209 °C", "174 to 176 °C", "232 to 234 °C", "104 to 106 °C"]

Please go through the list and note melting point for each molecule.
1. O=C(Cc1ccc2oc(=O)[nH]c2c1)N[C@H](CN1CCCC1)c1cccc(O)c1 [Example 84]
2. CN(C(=O)Cc1ccc2oc(=O)[nH]c2c1)[C@H](CN1CC[C@H](O)C1)C1CCCCC1 [Example 70]
3. CN(C(=O)Cc1ccc2oc(=O)[nH]c2c1)C(CN1CCCC1)c1cccc(OCC(=O)O)c1 (stereo in doubt) [Example 90]
4. CC(C)(C)OC(=O)COc1cccc([C@@H](CN2CCCC2)NC(=O)Cc2ccc3oc(=O)n(Cc4ccccc4)c3c2)c1 [Example 63]
5. O=C(Cc1ccc2oc(=O)[nH]c2c1)N[C@H](CN1CCCC1)c1ccccc1 [Example 56]
6. NC(=O)c1cccc(Cn2c(=O)oc3ccc(CC(=O)N[C@H](CN4CCCC4)c4ccccc4)cc32)c1 [Example 91]
7. N#Cc1ccc(Cn2c(=O)oc3ccc(CC(=O)N[C@H](CN4CC[C@H](O)C4)c4ccccc4)cc32)cc1 [Example 59]

Key:
140 to 142 °C
130 to 131 °C
227 to 229 °C
68 to 70 °C
129 to 130 °C
171 to 172 °C
194 °C
